meta.source: PubChem BioAssay (NCI)

Test system: MDA-MB-435 melanoma
Test: NCI-60 one-dose screen, 48 h (100 = growth as untreated, 0 = no growth, -100 = all killed)
Details: 10 µM unless noted
About 83,000 compounds went through this panel and 20% of them were active in at least one assay; those are over-represented in the sample as a whole.
MEASUREMENT_LABEL: growth (%)
Please state the figure in %; there is no need to write the unit.

Please review the following examples before continuing.
C=C1C(=O)O[C@H]2[C@H]1CC/C(CNC(=O)/C=C/c1ccccc1)=C\CC[C@@]1(C)O[C@@H]21	-8.54
Oc1cccc(CCc2ccc(Oc3cc(CCc4cccc(O)c4)cc(O)c3O)cc2)c1	68.6
COc1cccc(/C=N/NC(=O)c2cnn3c2NC(c2ccccc2)C3)c1Oc1ccccc1 (configuration not stated)	1.99
O=C(/C=C(/C=C/c1coc2ccccc12)OB(F)F)/C=C/c1coc2ccccc12	48.1

stdin: # value lookup — system MDA-MB-435 melanoma, readout growth, item `CC(C)(C)c1ccc(NS(=O)(=O)c2ccc3nc(NC(=O)c4cnccn4)[nH]c3c2)cc1`
stdout: -41

stdin: // repeat for `Cn1nc(CC#N)c2c(=N)n(N)cnc21` and report
stdout: 107

stdin: Another compound to look at: `O=S(=O)(NCCNc1nccc(-c2c(-c3cccc(O)c3)nc3occn23)n1)c1ccccc1`
stdout: 28.5

stdin: Try the compound `O=C1Nc2ccc(F)cc2/C1=C\c1c(-c2ccccc2)nc2ccccn12`
stdout: -10.1

stdin: // repeat for `CC[C@]12C=CCN3CC[C@@]4(c5cc(NC(=O)CCC(=O)O[C@H]6CC[C@H]7[C@@H]8CCC9=CC(=O)CC[C@@H]9[C@H]8CC[C@]67C)c(OC)cc5N(C)[C@H]4[C@@](O)(C(=O)OC)[C@@H]1OC(C)=O)[C@@H]32` and report
stdout: 20.7

stdin: Consider next the compound `COc1ccc(-c2[nH][nH]c(=O)c2-c2nc3ccccc3s2)cc1` in the same way.
stdout: 101

stdin: Also `CCCCCCNC(=O)Nc1ccc2cc3ccc(NC(=O)NCCCCCC)cc3nc2c1` ?
stdout: -83.6

stdin: Then `C=C(CBr)[C@@H]1CC[C@]2(COC(C)=O)CC[C@]3(C)[C@H](CC[C@@H]4[C@@]5(C)CCCNC(C)(C)[C@@H]5CC[C@]43C)[C@@H]12` ?
stdout: 54.5

stdin: Note, next up: `CCOC(=O)c1cc(C(=O)c2ccc(Br)cc2)n2ccc(/C=C/c3cc[n+](CC(=O)c4ccc(OC)cc4)cc3)cc12`
stdout: 101

stdin: # repeat for `C=C1C(=O)O[C@H]2[C@H]1CC/C(CNC(=O)c1cccc3ccccc13)=C\CC[C@@]1(C)O[C@@H]21`
stdout: 40.2

stdin: What about `Cc1ccc(NC(=O)c2cc(-c3nc4ccccc4s3)c(=O)n(NS(=O)(=O)c3ccc(Cl)cc3)c2N)cc1` ?
stdout: 99.4

stdin: Also, `CCOC(=O)CSc1nc2ccccc2c(=O)n1Cc1ccc(S(N)(=O)=O)cc1` please.
stdout: 102

stdin: // repeat for `CCCCCN1C=C/C(=C\C(=O)N(C)c2ccc(OC(F)(F)F)cc2)c2ccccc21` and report
stdout: 105

###

System: OVCAR-5 ovarian
Test: NCI-60 one-dose screen, 48 h (100 = growth as untreated, 0 = no growth, -100 = all killed)
Conditions: 10 µM unless noted
This is part of a sample that, as a whole, favours compounds with a hit. Of some 83,000 tested, about 20% had one in any assay.
Simple rule here: growth less than 90% is Met, otherwise Not met.

# example entries with known answers
CC(=O)[C@H]1CCC/C=C/[C@@H]2C[C@H](O)C[C@H]2[C@H](O)/C=C/C(=O)O1	Met
CC1(C)CC[C@]23CC[C@]4(C)[C@H](CC[C@@H]5[C@@]6(C)CCCNC(C)(C)[C@@H]6CC[C@]54C)[C@H]2[C@H]1OC3	Met
c1ccc(-c2cn3c(ccc4ccccc43)n2)cc1	Met
O=C1c2ccc3c4c(ccc(c24)C(=O)N1CCCNCc1ccccc1Cl)C(=O)N(CCCNCc1ccccc1Cl)C3=O	Met
O=Cc1ccc(-c2cn3ccnc3c(-c3ccc4ncn(Cc5ccccc5)c4c3)n2)cc1	Not met
CN[C@@H](C)C(=O)N[C@H]1CCS[C@H]2CC(C)(C)[C@@H](C(=O)N[C@H]3c4ccccc4C[C@H]3OCC#CC#CCO[C@@H]3Cc4ccccc4[C@@H]3NC(=O)[C@H]3N4C(=O)[C@@H](NC(=O)[C@H](C)NC)CCS[C@H]4CC3(C)C)N2C1=O	Not met

stdin: Lab note: confirm whether the reported growth for this molecule is below 90%, equality not counting. molecule: `COc1cc2oc(-c3cccc(C(=O)Nc4ccccc4)c3)cc(=O)c2c(O)c1OC`
stdout: Not met

stdin: // same read-out, input: `CCCCCC(=O)Oc1ccc(/C(=C(/C)Cc2ccc(OC)cc2)c2ccc(OCCCN(C)C)cc2)cc1`
stdout: Not met

stdin: How about `Cc1c(C)c([N+](=O)[O-])c(C)c([N+](=O)[O-])c1C` ?
stdout: Not met

stdin: Also need `CCN1Cc2nc3sc(C)c(C)c3c(=O)n2C=C1C` , thanks.
stdout: Met

stdin: What about `C=C(C)[C@@H]1CC[C@]2(C(=O)N[C@H](CO)Cc3ccccc3)CC[C@]3(C)[C@H](CC[C@@H]4[C@@]5(C)CCCNC(C)(C)[C@@H]5CC[C@]43C)[C@@H]12` ?
stdout: Met

stdin: Please give the result for `Clc1ccc(-c2ccc(CNCC3CCNCC3)o2)c(-c2ccccc2)c1` too.
stdout: Met

stdin: Repeat for the following molecule: `CC(=O)OC[C@]12CC[C@@H](C(=O)CBr)[C@@H]1[C@H]1CC[C@@H]3[C@@]4(C)CC[C@H](OC(C)=O)C(C)(C)[C@@H]4CC[C@@]3(C)[C@]1(C)CC2`
stdout: Not met

stdin: Ok, now `NC(=O)Nc1ccc(-n2cnc3cc(-c4ccc(O)cc4)ccc32)cc1`
stdout: Not met

stdin: Same read-out for `O=C1Nc2cc(-c3cccc(O)c3)ccc2/C1=C/c1ccc[nH]1` ?
stdout: Met

stdin: What do we get for `OCc1cnccc1NCCCOc1ccccc1` ?
stdout: Not met
